System: rh beta tryptase (Homo sapiens, UniProt Q15661)
Sequence (Q15661 31-275): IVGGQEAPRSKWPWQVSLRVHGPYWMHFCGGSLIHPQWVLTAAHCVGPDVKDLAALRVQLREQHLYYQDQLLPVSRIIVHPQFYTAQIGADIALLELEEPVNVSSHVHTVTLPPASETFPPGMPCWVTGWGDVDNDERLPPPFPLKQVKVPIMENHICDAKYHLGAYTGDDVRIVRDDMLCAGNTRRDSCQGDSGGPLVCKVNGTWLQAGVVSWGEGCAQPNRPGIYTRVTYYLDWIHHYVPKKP
Assay protocol: tryptase inhibition test (cleavage of N-p-tosyl-Gly-Pro-Lys-para-nitroaniline, p-nitroaniline measured at 405 nm)
Measurement parameters: Tris HCl buffer pH 7.4 with calcium and heparin; substrate 0.6 mM; 5 min pre-incubation, 5 min incubation at 37° C.; enzyme activity 0.91 U/ml
Protocol: The compounds according to the invention are characterised by their tryptase-inhibiting activity. This ability to inhibit tryptase was investigated using the test described below. The measurement is carried out in Tris HCl buffer (100 mM), which additionally contains calcium (5 mM) and heparin (100 mg/ml), at pH 7.4. […] The substrate is digested with tryptase to form p-nitroaniline which can be measured at 405 nm. […]
Endpoint: IC50 (nM)

Smi: Cn1c(CCc2ccc(C(=N)N)cc2)nc2cc(N(Cc3cccnc3)S(=O)(=O)c3ccc4ccccc4c3)ccc21
IC50, nM: 22
//
Smi: CCN(CC)CCN(c1ccc2c(c1)nc(CCc1ccc(C(=N)N)cc1)n2C)S(=O)(=O)c1cccc2cnccc12
IC50, nM: 38

[a] CCN(CC)CCN(c1ccc2c(c1)nc(CCc1ccc(C(=N)N)cc1)n2CCCc1ccccc1)S(=O)(=O)c1ccccc1
[b] CCN(CC)CCN(c1ccc2c(c1)nc(CCc1ccc(C(=N)N)cc1)n2C)S(=O)(=O)c1cccc2cccnc12
[c] Cn1c(CCc2ccc(C(=N)N)cc2)nc2cc(N(CC(=O)N3CCNCC3)S(=O)(=O)c3ccc4ccccc4c3)ccc21
[d] Cn1c(CCc2ccc(C(=N)N)cc2)nc2cc(N(CC(=O)N3CCN(Cc4ccccc4)CC3)S(=O)(=O)c3ccc4ccccc4c3)ccc21
query: Which order do these items take when sorted by rising IC50? List them. Use the labels to give the ranking in the order requested.
result: b, c, d, a

----------
System: rh beta tryptase (Homo sapiens, UniProt Q15661)
Assay protocol: tryptase inhibition test (cleavage of N-p-tosyl-Gly-Pro-Lys-para-nitroaniline, p-nitroaniline measured at 405 nm)
Measurement parameters: Tris HCl buffer pH 7.4 with calcium and heparin; substrate 0.6 mM; 5 min pre-incubation, 5 min incubation at 37° C.; enzyme activity 0.91 U/ml
Endpoint: IC50 (nM)

Study these solved cases before continuing.
Compound: CCN(CC)CCN(c1ccc2c(c1)nc(CCc1ccc(C(=N)N)cc1)n2CCOc1ccccc1OC)S(=O)(=O)c1ccccc1
Reported result: 74
--
Compound: Cn1c(CCc2ccc(C(=N)N)cc2)nc2cc(N(CC(=O)N3CCN(c4ccncc4)CC3)S(=O)(=O)c3ccc4ccccc4c3)ccc21
Reported result: 186
--
Compound: CCN(CC)CCN(c1ccc2c(c1)nc(CCc1ccc(C(=N)N)cc1)n2C)S(=O)(=O)c1ccccc1
Reported result: 25

[I] CCN(CC)CCN(c1ccc2c(c1)nc(CCc1ccc(C(=N)N)cc1)n2CC1CCCO1)S(=O)(=O)c1ccccc1 (stereo not shown)
[II] CCN(CC)CCN(c1ccc2c(c1)nc(CCc1ccc(C(=N)N)cc1)n2C)S(=O)(=O)c1cccc2ccccc12
[III] CN1CCCC1CN(c1ccc2c(c1)nc(CCc1ccc(C(=N)N)cc1)n2C)S(=O)(=O)c1ccccc1 (stereo not shown)
[IV] CCN(CC)CCN(c1ccc2c(c1)nc(CCc1ccc(C(=N)N)cc1)n2CCc1ccccc1)S(=O)(=O)c1ccccc1
query: Descending sort on IC50 required. Use the labels to give the ranking in the order requested.
result: I, IV, III, II

Source: patent US6365584B1
